Record form. Attribute: Kd. Fill in for each entry.
Target: Plasmodium falciparum lactate dehydrogenase (PfLDH) (Plasmodium falciparum, UniProt Q71T02 1-316)
Test: EMSA; 4 C; Fig. S15 panel assignment of 606/355 unclear; EMSA: 25 nM strand, 0-2500 nM PfLDH (tetramer concentration in legends; text says Kd per subunit), 25 mM Tris-HCl pH 7.5, 100 mM NaCl, 20 mM imidazole, 25 C 1 h
Conditions: protein: recombinant; chain copies: 4; hairpin

> print(dat)
                                     binder  property.measured  test.result
1  aptamer-staple 211 Edge (ssDNA) DNA: GCTAAATCTTTTCTGTAGCTCAACATGTATTGCTGACTGGGCGGTAGAACCATAGTGACCCAG                 Kd       355 nM

Value of measured Kd for the entry aptamer-staple 111 Edge (ssDNA) DNA: AAACCCTCTTTTACCAGTAATAAAAGGGATTCACCAGTCACACGTTTTCTGGGCGGTAGAACCATAGTGACCCAG : 606 nM
